Sourced from patent US20110118131A1

- System: T1, IL-1beta (UniProt P01584 117-269)
- T1 construct: also called IL-1β
- Experiment description: Biacore
Recorded endpoint: fold difference in affinity vs parental (fold)
The figure you give is taken to be in fold; do not add the unit.

In the examples that follow, each entry is paired with its recorded fold difference in affinity vs parental.
[
  {
    "Binder": "XPA23 Fab, heavy chain K31Y (Fab, V domains shown) VH: EVQLLESGGGLVQPGGSLRLSCAASGFTFSYYFMFWVRQAPGKGLEWVSVISPSGGMTRYADSVKGRFTISRDNSKNTLYLQMNSLRAEDTAVYYCARVGYGGNSDYWGQGTLVTVSS VL: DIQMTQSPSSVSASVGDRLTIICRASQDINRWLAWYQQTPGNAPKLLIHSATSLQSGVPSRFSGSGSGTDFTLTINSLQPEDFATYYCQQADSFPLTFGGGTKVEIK",
    "fold difference in affinity vs parental [fold]": 0.04
  },
  {
    "Binder": "XPA23 Fab, heavy chain G56W (Fab, V domains shown) VH: EVQLLESGGGLVQPGGSLRLSCAASGFTFSKYFMFWVRQAPGKGLEWVSVISPSGWMTRYADSVKGRFTISRDNSKNTLYLQMNSLRAEDTAVYYCARVGYGGNSDYWGQGTLVTVSS VL: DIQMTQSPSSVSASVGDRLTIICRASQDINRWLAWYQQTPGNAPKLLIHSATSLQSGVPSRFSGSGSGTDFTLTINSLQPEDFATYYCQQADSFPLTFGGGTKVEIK",
    "fold difference in affinity vs parental [fold]": 1.51
  },
  {
    "Binder": "XPA23 Fab, heavy chain P53N (Fab, V domains shown) VH: EVQLLESGGGLVQPGGSLRLSCAASGFTFSKYFMFWVRQAPGKGLEWVSVISNSGGMTRYADSVKGRFTISRDNSKNTLYLQMNSLRAEDTAVYYCARVGYGGNSDYWGQGTLVTVSS VL: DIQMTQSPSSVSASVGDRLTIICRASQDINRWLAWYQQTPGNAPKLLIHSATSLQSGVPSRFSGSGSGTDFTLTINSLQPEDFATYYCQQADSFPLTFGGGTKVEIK",
    "fold difference in affinity vs parental [fold]": 0.06
  },
  {
    "Binder": "XPA23 Fab, heavy chain I51R (Fab, V domains shown) VH: EVQLLESGGGLVQPGGSLRLSCAASGFTFSKYFMFWVRQAPGKGLEWVSVRSPSGGMTRYADSVKGRFTISRDNSKNTLYLQMNSLRAEDTAVYYCARVGYGGNSDYWGQGTLVTVSS VL: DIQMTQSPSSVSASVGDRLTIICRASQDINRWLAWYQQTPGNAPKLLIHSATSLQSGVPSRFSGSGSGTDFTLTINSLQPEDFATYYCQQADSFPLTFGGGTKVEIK",
    "fold difference in affinity vs parental [fold]": 0.1
  },
  {
    "Binder": "XPA23 Fab, heavy chain D106H (Fab, V domains shown) VH: EVQLLESGGGLVQPGGSLRLSCAASGFTFSKYFMFWVRQAPGKGLEWVSVISPSGGMTRYADSVKGRFTISRDNSKNTLYLQMNSLRAEDTAVYYCARVGYGGNSHYWGQGTLVTVSS VL: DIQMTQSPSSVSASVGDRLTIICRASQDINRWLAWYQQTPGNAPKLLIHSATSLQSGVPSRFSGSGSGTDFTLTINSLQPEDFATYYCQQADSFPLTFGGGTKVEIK",
    "fold difference in affinity vs parental [fold]": 0.02
  },
  {
    "Binder": "XPA23 Fab, heavy chain M57Y (Fab, V domains shown) VH: EVQLLESGGGLVQPGGSLRLSCAASGFTFSKYFMFWVRQAPGKGLEWVSVISPSGGYTRYADSVKGRFTISRDNSKNTLYLQMNSLRAEDTAVYYCARVGYGGNSDYWGQGTLVTVSS VL: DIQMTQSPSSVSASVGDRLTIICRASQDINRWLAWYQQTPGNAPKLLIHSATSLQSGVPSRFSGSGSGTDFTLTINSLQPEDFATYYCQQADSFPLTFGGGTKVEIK",
    "fold difference in affinity vs parental [fold]": 0.86
  },
  {
    "Binder": "XPA23 Fab, heavy chain Y32F (Fab, V domains shown) VH: EVQLLESGGGLVQPGGSLRLSCAASGFTFSKFFMFWVRQAPGKGLEWVSVISPSGGMTRYADSVKGRFTISRDNSKNTLYLQMNSLRAEDTAVYYCARVGYGGNSDYWGQGTLVTVSS VL: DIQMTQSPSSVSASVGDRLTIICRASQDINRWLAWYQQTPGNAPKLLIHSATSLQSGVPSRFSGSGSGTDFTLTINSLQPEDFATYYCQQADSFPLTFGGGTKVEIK",
    "fold difference in affinity vs parental [fold]": 0.75
  },
  {
    "Binder": "XPA23 Fab, heavy chain I51E (Fab, V domains shown) VH: EVQLLESGGGLVQPGGSLRLSCAASGFTFSKYFMFWVRQAPGKGLEWVSVESPSGGMTRYADSVKGRFTISRDNSKNTLYLQMNSLRAEDTAVYYCARVGYGGNSDYWGQGTLVTVSS VL: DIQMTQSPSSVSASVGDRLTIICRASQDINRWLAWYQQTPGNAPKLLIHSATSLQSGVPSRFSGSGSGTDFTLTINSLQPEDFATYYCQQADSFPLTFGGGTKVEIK",
    "fold difference in affinity vs parental [fold]": 0.73
  }
]

Ask: Supply recorded fold difference in affinity vs parental for XPA23 Fab, heavy chain K31F (Fab, V domains shown) VH: EVQLLESGGGLVQPGGSLRLSCAASGFTFSFYFMFWVRQAPGKGLEWVSVISPSGGMTRYADSVKGRFTISRDNSKNTLYLQMNSLRAEDTAVYYCARVGYGGNSDYWGQGTLVTVSS VL: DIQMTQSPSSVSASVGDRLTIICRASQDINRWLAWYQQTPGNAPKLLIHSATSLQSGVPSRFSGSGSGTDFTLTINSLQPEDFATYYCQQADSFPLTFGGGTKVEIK here.
Result: 0.05

Ask: Supply recorded fold difference in affinity vs parental for XPA23 Fab, heavy chain Y32H (Fab, V domains shown) VH: EVQLLESGGGLVQPGGSLRLSCAASGFTFSKHFMFWVRQAPGKGLEWVSVISPSGGMTRYADSVKGRFTISRDNSKNTLYLQMNSLRAEDTAVYYCARVGYGGNSDYWGQGTLVTVSS VL: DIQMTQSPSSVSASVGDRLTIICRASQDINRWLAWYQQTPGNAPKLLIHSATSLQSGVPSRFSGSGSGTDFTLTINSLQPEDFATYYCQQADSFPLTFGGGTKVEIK here.
Result: 0.62
